Target: eIF4E/eIF4G interaction (Homo sapiens, UniProt P06730)
Sequence (P06730 whole entry): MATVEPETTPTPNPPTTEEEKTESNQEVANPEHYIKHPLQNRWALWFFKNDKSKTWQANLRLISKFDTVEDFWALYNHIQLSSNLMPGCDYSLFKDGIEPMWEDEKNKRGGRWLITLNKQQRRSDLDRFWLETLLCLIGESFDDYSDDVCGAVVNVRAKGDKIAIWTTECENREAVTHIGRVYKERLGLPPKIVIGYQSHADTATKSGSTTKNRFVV
Assay: Fluorescent polarization assay
Format: binding
Conditions: FITC eIF4G peptide and recombinant eIF4E, ratio to Z (4EGI-1 = 1)
Note to self: values exactly at 0.7 are 1.0. So Fp (ratio to Z) at or above 0.7 is 1.0, below is 0.0.

These solved cases illustrate the format of a correct answer.
CCOc1ccc(-c2nc(N/N=C(/Cc3ccccc3[N+](=O)[O-])C(=O)O)sc2-c2ccc(OC)cc2)cc1 [KY-576F]	1.0
O=C(O)c1nn(-c2nc(-c3ccccc3)cs2)c2ccc([N+](=O)[O-])cc12 [RYF-292]	0.0
COc1ccc(-c2sc(N/N=C(/Cc3ccccc3[N+](=O)[O-])C(=O)O)nc2-c2ccc(C3CCCCC3)cc2)cc1 [KY-612S]	1.0
COc1ccc(-c2nc(NN=C(Cc3ccccc3[N+](=O)[O-])C(=O)O)sc2-c2ccc(OC)cc2)cc1 [KY-323B]	0.0

Problem: Could you verify whether the entry [N-]=[N+]=NCCCCOc1ccc(-c2csc(NN=C(Cc3ccccc3[N+](=O)[O-])C(=O)O)n2)cc1 [KH-113s] shows Fp (ratio to Z) of no less than 0.7?
Result: 1.0

Problem: Could you verify whether the entry O=C(O)C(Cc1ccccc1[N+](=O)[O-])=NNc1nc(-c2ccc(Br)cc2)cs1 [KH-53S] shows Fp (ratio to Z) of no less than 0.7?
Result: 0.0
